These entries and their values trace back to patent US20240124483A1.

Target: KRas G12D mutant (Homo sapiens (Human), UniProt P01116, G12D)
Sequence (P01116 other isoform, or with tags, fused parts or gaps G12D): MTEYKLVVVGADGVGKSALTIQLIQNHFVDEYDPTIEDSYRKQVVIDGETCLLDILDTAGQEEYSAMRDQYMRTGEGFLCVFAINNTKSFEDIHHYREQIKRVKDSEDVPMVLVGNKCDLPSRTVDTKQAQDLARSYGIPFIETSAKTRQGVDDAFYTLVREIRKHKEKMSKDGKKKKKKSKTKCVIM
Assay: Ras GTP Binding Domain Inhibition Assay, KRas G12D mutant
Settings: 20 μM; without SOS; Table 7; read-out: KRas G12D mutant: % inh.
property.measured: inhibition at 20 µM

[ask] What does the record list as inhibition at 20 µM for COCCNc1nc(-c2nccn2C)nc2sc(-c3ccccc3)c(-c3ccccc3Cl)c12 ?
[reply] 26 to 45%

[ask] So what does the record say about inhibition at 20 µM for COc1cc(-c2sc3nc(-c4nccn4C)nc(N[C@@H]4CC[C@H](OC)C4)c3c2-c2ccccc2)ccn1 (racemic) ?
[reply] 76 to 100%

[ask] Find the recorded inhibition at 20 µM belonging to Cc1c(-c2ccn(C(C)C)n2)sc2nc(-c3nccn3C)nc(NCCN3CCOCC3)c12 and report it.
[reply] 76 to 100%

[ask] GET /values?readout=inhibition at 20 µM&item= COCCn1ccc(-c2sc3nc(-c4nccn4C)nc(N[C@@H]4CC[C@H](OC)C4)c3c2C)n1 (racemic)
[reply] 46 to 75%

[ask] Name the recorded inhibition at 20 µM for COc1cccc(-c2sc3nc(-c4nccn4C)nc(N[C@H]4C[C@H](OC)C4)c3c2C)c1F .
[reply] 26 to 45%

[ask] // query inhibition at 20 µM value for entry COc1cc(-c2sc3nc(-c4nccn4C)nc(N[C@@H]4CC[C@@H](OC)C4)c3c2-c2ccccc2)ccn1 (racemic)
[reply] 46 to 75%

[ask] Which inhibition at 20 µM is reported for this molecule? CO[C@H]1CNC[C@@H](Nc2nc(-c3nccn3C)nc3sc(-c4ccn(C(C)C)n4)cc23)C1
[reply] 46 to 75%

----------
Experiment: Assessment of Plasma Exposure in DBA/2J mice
Format: in vivo, mouse
Details: male, DBA/2J, mouse, plasma, po, 100 mg/kg, Group 4: 100 mg/kg PO, Vehicle 2; mouse plasma; read-out: AUCINFobs
property.measured: AUC(0-inf) (ng·h/mL)
Report as a plain number; the unit ng·h/mL is understood.

[ask] Look up AUC(0-inf): COCCNc1nc(-c2nccn2C)nc2sc(-c3cccc(OC)c3Cl)c(-c3ccccc3)c12
[reply] 17200

----------
Molecular target: Rac-1 (Homo sapiens (Human), UniProt P63000)
Test: Ras GTP Binding Domain Inhibition Assay, Rac-1
Settings: + SOS, read-out: Rac-1 + SOS: % inh.
property.measured: inhibition at 20 µM

[ask] What does the data say about its inhibition at 20 µM? Entry: COC1CCN(c2nc(-c3nccn3C)nc3sc(-c4ccn(C)n4)c(-c4ccccc4)c23)CC1
[reply] 26 to 45%

[ask] Using the record for COCCNc1nc(-c2nccn2C)nc2sc(-c3cccc(OC)c3Cl)c(-c3ccc(OC)cc3)c12 , report its inhibition at 20 µM.
[reply] 46 to 75%

[ask] Please give the measured inhibition at 20 µM for this molecule: COCCNc1nc(-c2cn(C)cn2)nc2sc(-c3cccc(OC)c3Cl)c(-c3ccc(OC)cc3)c12
[reply] 46 to 75%

[ask] Request the reported inhibition at 20 µM associated with COCCNc1nc(-c2nccn2C)nc2sc(-c3cccc(OC)c3Cl)c(-c3ccccc3)c12
[reply] 46 to 75%

[ask] # get_value(readout='inhibition at 20 µM', item= CO[C@@H]1CC[C@H](Nc2nc(-c3nccn3C)nc3sc(-c4ccn(C(C)C)n4)c(-c4ccccc4)c23)C1 (single isomer, unassigned) )
[reply] 26 to 45%

----------
Target: KRas G12C mutant (Homo sapiens (Human), UniProt P01116, G12C)
Sequence (P01116 other isoform, or with tags, fused parts or gaps G12C): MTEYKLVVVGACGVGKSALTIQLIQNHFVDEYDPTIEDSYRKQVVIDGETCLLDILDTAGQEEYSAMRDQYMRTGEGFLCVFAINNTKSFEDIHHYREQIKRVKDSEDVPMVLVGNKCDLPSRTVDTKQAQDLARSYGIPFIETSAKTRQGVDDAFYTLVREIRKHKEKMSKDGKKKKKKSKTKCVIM
Test: Ras GTP Binding Domain Inhibition Assay, KRas G12C mutant
Conditions: without SOS, read-out: KRas G12C mutant: % inh.
Procedure: A Ras Superfamily Activity Assay (as disclosed in International Application No. PCT/US2018/038613, filed Jun. 20, 2018, which is incorporated by reference in its entirety) was used as a specific assay to evaluate compounds against the following for the following Ras Superfamily proteins: KRas wild type, KRas Q61H mutant, KRas G12C mutant, KRas G12D mutant, Rac-1, and Rho-A. Buffer-I: • 25 mM Tris-HCl, pH 7.4 • 27 mM KCl • 137 mM NaCl • 1 mM MgCl2 • 1 mM DTT […]
property.measured: inhibition at 20 µM

[ask] Return reported inhibition at 20 µM; argument: COCCNc1nc(-c2nccn2C)nc2sc(-c3cccc(OC)c3Cl)c(-c3ccccc3)c12
[reply] 26 to 45%

[ask] Param item = COCC1CN(c2nc(-c3nccn3C)nc3sc(-c4ccn(C(C)C)n4)c(C)c23)CCO1 (racemic) ; retrieve measured inhibition at 20 µM.
[reply] 46 to 75%

[ask] Given COCCNc1nc(-c2nccn2C)nc2sc(-c3ccccc3)c(-c3ccccc3Cl)c12 , state its recorded inhibition at 20 µM.
[reply] 26 to 45%

[ask] Look up inhibition at 20 µM: COCCCNc1nc(-c2nccn2C)nc2sc(-c3ccccc3)c(-c3ccccc3)c12
[reply] 46 to 75%

[ask] Quick one: inhibition at 20 µM for Cc1c(-c2ccn(C(C)C)n2)sc2nc(-c3nccn3C)nc(NCC3CN(C)CCO3)c12 (racemic) ?
[reply] 76 to 100%

[ask] Record request: inhibition at 20 µM value, item COCCCOc1nc(-c2nccn2C)nc2sc(-c3ccn(C(C)C)n3)c(-c3ccccc3)c12
[reply] 0%

[ask] GET /values?readout=inhibition at 20 µM&item= COc1cc(Cn2c(-c3nccn3C)nc3sc(-c4ccn(C(C)C)n4)c(C)c3c2=O)ncn1
[reply] 0%

[ask] May I ask what inhibition at 20 µM has been recorded for COCCn1ccc(-c2sc3nc(-c4nccn4C)nc(NC[C@H]4CC[C@H]4COC)c3c2C)n1 (racemic) ?
[reply] 46 to 75%

----------
Molecular target: KRas G12C mutant (Homo sapiens (Human), UniProt P01116, G12C)
Test: Ras GTP Binding Domain Inhibition Assay, KRas G12C mutant
Details: + SOS, read-out: KRas G12C mutant + SOS: % inh.
Task for the reader: assign each of the following compounds its reported inhibition at 20 µM.

[ask] I am curious: what inhibition at 20 µM value has been reported for COC1CCN(c2nc(-c3nccn3C)nc3sc(-c4ccn(C)n4)c(-c4ccccc4)c23)CC1 ?
[reply] 46 to 75%

[ask] What does the record list as inhibition at 20 µM for COCCCOc1nc(-c2nccn2C)nc2sc(-c3ccn(C(C)C)n3)c(C)c12 ?
[reply] 46 to 75%

[ask] Name the recorded inhibition at 20 µM for COCCNc1nc(-c2nccn2C)nc2sc(-c3cccc(OC)c3Cl)c(-c3ccccc3)c12 .
[reply] 76 to 100%

[ask] Would you mind telling me what inhibition at 20 µM value was observed for COCC1CN(c2nc(-c3nccn3C)nc3sc(-c4ccn(C(C)C)n4)c(C)c23)CCO1 (racemic) ?
[reply] 76 to 100%

[ask] So what does the record say about inhibition at 20 µM for COCCCOc1nc(-c2nccn2C)nc2sc(-c3ccn(C(C)C)n3)c(-c3ccccc3)c12 ?
[reply] 0%

[ask] Endpoint output: inhibition at 20 µM of COCCCCOc1nc(-c2nccn2C)nc2sc(-c3ccn(C(C)C)n3)c(C)c12 . Value?
[reply] 1 to 25%

[ask] Quick check: inhibition at 20 µM of COCC1(OC)CCN(c2nc(-c3nccn3C)nc3sc(-c4ccn(C(C)C)n4)c(C)c23)C1 (racemic) ?
[reply] 76 to 100%

[ask] Please look up its inhibition at 20 µM: COc1cc(-c2sc3nc(-c4nccn4C)nc(N[C@@H]4CC[C@@H](OC)C4)c3c2-c2ccccc2)ccn1 (racemic)
[reply] 76 to 100%

[ask] Value lookup for inhibition at 20 µM; key = COCCn1ccnc1-c1nc(N[C@H]2C[C@@H](OC)C2)c2c(-c3ccccc3)c(-c3ccn(C)n3)sc2n1
[reply] 76 to 100%

[ask] Please look up its inhibition at 20 µM: Cc1c(-c2ccn(C(C)C)n2)sc2nc(-c3nccn3C)nc(NCCN3CCS(=O)(=O)CC3)c12
[reply] 76 to 100%

[ask] Can you look up the measured inhibition at 20 µM of CO[C@@H]1CC[C@H](Nc2nc(-c3nccn3C)nc3sc(-c4ccn(C(C)C)n4)c(-c4ccccc4)c23)C1 (single isomer, unassigned) for me?
[reply] 76 to 100%

[ask] Tell me the measured inhibition at 20 µM of COc1cccc(-c2sc3nc(-c4nccn4C)nc(N[C@@H]4CC[C@@H](OC)C4)c3c2C)c1F (racemic) , please.
[reply] 76 to 100%

[ask] // inhibition at 20 µM lookup, key: COCCCCn1c(-c2nccn2C)nc2sc(-c3ccn(C(C)C)n3)c(C)c2c1=O
[reply] 1 to 25%

[ask] State the recorded inhibition at 20 µM for this entry: COc1cccc(Nc2nc(-c3nccn3C)nc3sc(-c4ccn(C(C)C)n4)c(C)c23)n1
[reply] 46 to 75%
